// reported viability, T/C per item
# System: SUM149PT spheroids with HUVEC/MSC, viability
# Assay Comment: Anticancer human tumor SUM149PT cell line growth inhibition [GQUAD];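 also: spheroids exposed to drugs for seven days before readout; percent viability relative to DMSO vehicle control taken as 100%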
# Condition Summary: second compound 0.0316 µM; first compound 10 µM; active compounds read low

Molecule: CC(C)(O)C1CCC(Nc2ccc3ncc(-c4cccc(C(F)(F)F)c4)n3n2)CC1 (stereo not given) + Cc1cnc(CNC(=O)c2c(=O)c3ccc(N4CCCN(C)CC4)nc3n3c2sc2ccccc23)cn1
viability, T/C [%]: 29.5
//
Molecule: CC(C)(O)C1CCC(Nc2ccc3ncc(-c4cccc(C(F)(F)F)c4)n3n2)CC1 (stereo not given) + CN(C)c1ccc(Nc2c3ccc(NC(=O)CCN4CCCC4)cc3nc3cc(NC(=O)CCN4CCCC4)ccc23)cc1
viability, T/C [%]: 54.2
//
Molecule: CC1COCCN1c1cc(C2(S(C)(=N)=O)CC2)nc(-c2ccnc3[nH]ccc23)n1 (stereo not given) + Cc1[nH]c2ccc(F)cc2c1-c1nc2c3cccnc3c3ncccc3c2[nH]1
viability, T/C [%]: 17.3
//
Molecule: Nc1ccn(C2OC(CO)C(O)C2(F)F)c(=O)n1 (stereo not given) + CN(C)c1ccc(Nc2c3ccc(NC(=O)CCN4CCCC4)cc3nc3cc(NC(=O)CCN4CCCC4)ccc23)cc1
viability, T/C [%]: 20.8
//
Molecule: CC1COCCN1c1cc(C2(S(C)(=N)=O)CC2)nc(-c2ccnc3[nH]ccc23)n1 (stereo not given) + CN(C)c1ccc(Nc2c3ccc(NC(=O)CCN4CCCC4)cc3nc3cc(NC(=O)CCN4CCCC4)ccc23)cc1
viability, T/C [%]: 29.4
